EXPERIMENT_DESCRIPTION: protein stability index of a GFP-peptide fusion (yeast GPS) (PSI 1-4); higher = more stable; sorted into four equal gates, so the index is relative within each strain
RUN_CONDITIONS: san1∆
ASSAY_READOUT: protein stability index
Just the number, please, no unit attached.

Data request: Fill in reported protein stability index for this entry: RYFWLDHNGVPFPQYPA [ITC1]
Data returned: 3.08

Data request: Fill in reported protein stability index for this entry: HITSVPISAVLRGCKFL [GRR1]
Data returned: 1.86

Data request: Fill in reported protein stability index for this entry: SYRLLPQINILQPIKGE [RPC40]
Data returned: 1.74

Data request: Fill in reported protein stability index for this entry: MERLQRLMMNSKVGSAD [RPN11]
Data returned: 3.42

Data request: Fill in reported protein stability index for this entry: FSFTEPAQKDSSVVSEP [YOR098C/NUP1]
Data returned: 2.81

// switching to the query sequence
Data request: Fill in reported protein stability index for this entry: LITPAVRNTAPNIRELG [YCG1]
Data returned: 2.68
